TARGET: panel of 255 wild-type kinases (Homo sapiens)
ASSAY_NAME: Kinase panel profiling at 1 µmol/L (MSA or IMAP), percentage inhibition
Format: biochemical
STUDY_CONDITIONS: MAPKAPK5; 1 µmol/L single concentration; read-out: %-inhibition, MAPKAPK5
In this section we review reported inhibition at 1 µM values for a set of molecules.
Note: unit % is implicit; provide only the numeric part.

C[C@H]1Oc2cc(cnc2N)-c2c(nn(C)c2C#N)CN(C)C(=O)c2ccc(F)cc21 : 2.32
CCn1c(=O)c(-c2cc(NC(=O)Nc3ccccc3)c(F)cc2Br)cc2cnc(NC)cc21 : -3.71
COc1ccc(CN2C3CC2CN(c2ccc(-c4cc(OCC(C)(C)O)cn5ncc(C#N)c45)cn2)C3)cn1 : -1.78

Proceeding to the next molecule to report its inhibition at 1 µM.
Task: Item O=C(Nc1cnn2ccc(N3CCC[C@@H]3c3cc(F)ccc3F)nc12)N1CC[C@H](O)C1 with panel of 255 wild-type kinases (Homo sapiens) - inhibition at 1 µM?
Result: -3

====

TARGET: panel of 255 wild-type kinases (Homo sapiens, UniProt Q16816)
Sequence (Q16816 whole entry): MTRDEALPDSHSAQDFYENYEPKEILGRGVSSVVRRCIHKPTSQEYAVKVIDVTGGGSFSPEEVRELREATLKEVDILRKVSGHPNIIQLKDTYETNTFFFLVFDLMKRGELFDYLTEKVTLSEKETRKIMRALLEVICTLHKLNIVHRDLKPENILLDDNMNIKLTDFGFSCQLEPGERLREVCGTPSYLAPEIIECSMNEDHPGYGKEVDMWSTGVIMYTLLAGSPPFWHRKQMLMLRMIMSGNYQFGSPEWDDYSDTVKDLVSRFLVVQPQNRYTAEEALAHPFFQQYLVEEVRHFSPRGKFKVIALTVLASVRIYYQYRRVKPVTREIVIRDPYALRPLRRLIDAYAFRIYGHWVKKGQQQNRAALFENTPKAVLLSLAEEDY
ASSAY_NAME: Kinase panel profiling at 1 µmol/L (MSA or IMAP), percentage inhibition
Assay type: biochemical
STUDY_CONDITIONS: kinase PHKG1; 1 µmol/L single concentration; read-out: %-inhibition at 1 µmol/L, PHKG1
Each record here notes measured inhibition at 1 µM.
Express your answer in %, writing the number without its unit.

Worked set:
Cn1cnc2c(F)c(Nc3ccc(Br)cc3Cl)c(C(=O)NOCCO)cc21 [selumetinib] : -0.945
CCc1nc(C(N)=O)c(Nc2ccc(N3CCC(N4CCN(C)CC4)CC3)c(OC)c2)nc1NC1CCOCC1 [gilteritinib] : 92
CCN1C(=O)N(c2c(F)c(OC)cc(OC)c2F)Cc2cnc3[nH]c(CN4CCOCC4)cc3c21 [pemigatinib] : 6
Cn1cnc2c(F)c(Nc3ccc(Br)cc3F)c(C(=O)NOCCO)cc21 [binimetinib] : 1.77
CO[C@]1(C(=O)N[C@@H](C)c2ccc(-n3cc(F)cn3)nc2)CC[C@H](c2nc(C)cc(Nc3cc(C)[nH]n3)n2)CC1 [pralsetinib] : 1.67

Task: For the compound shown here, Cc1cc(Nc2ncnc3ccc(NC4=NC(C)(C)CO4)cc23)ccc1Oc1ccn2ncnc2c1 [tucatinib] , give the reported inhibition at 1 µM.
Result: -3.62

Task: For the compound shown here, Cc1nc(NC(=O)N2CCC[C@H]2C(N)=O)sc1-c1ccnc(C(C)(C)C(F)(F)F)c1 [alpelisib] , give the reported inhibition at 1 µM.
Result: -1.22

Task: Dear colleague, I am looking for the recorded inhibition at 1 µM of the following compound: Cn1cc(-c2cc3c(N4CCN(c5ncc([C@@](C)(N)c6ccc(F)cc6)cn5)CC4)ncnn3c2)cn1 [avapritinib]
Result: -0.381

Task: Need inhibition at 1 µM of CCN1CCN(c2ccc(Nc3cc(N(C)C(=O)Nc4c(Cl)c(OC)cc(OC)c4Cl)ncn3)cc2)CC1 [infigratinib] , thanks.
Result: 0.355

Task: Which value of inhibition at 1 µM has been reported for CN1CCN(c2ccc(C(=O)Nc3n[nH]c4ccc(Cc5cc(F)cc(F)c5)cc34)c(NC3CCOCC3)c2)CC1 [entrectinib] in the records?
Result: 54

Task: Item C=CC(=O)N1CCC([C@@H]2CCNc3c(C(N)=O)c(-c4ccc(Oc5ccccc5)cc4)nn32)CC1 [zanubrutinib] has what recorded inhibition at 1 µM?
Result: 2.38
